# METHOD_SUMMARY: In vivo PK after single p.o. and i.v. dosing in CD-1 mice
# Set-up: species or system female CD-1 mice
# RUN_PARAMETERS: female, mouse, plasma; oral 1.5 mg/kg, CD-1 mice, HCl/Solutol HS15/citrate pH 3 formulation; read-out: AUC0–24
EXPERIMENTAL_ENDPOINT: AUC(0-t) (ng·h/mL)
Response body: numeric value in ng·h/mL, unit text excluded.

Exercise: Fill in AUC(0-t) for record C[C@H]1Cc2c([nH]c3cc(Cl)c(F)cc23)[C@@]2(N1)C(=O)Nc1ccc(Cl)cc12 [(+)-7 (KAE609)]
Solution: 1000
